Taken from paper PMC7819943.

SYSTEM NAME: OsWOX13 (Oryza sativa, UniProt Q5QMM3 1-267)
Sequence: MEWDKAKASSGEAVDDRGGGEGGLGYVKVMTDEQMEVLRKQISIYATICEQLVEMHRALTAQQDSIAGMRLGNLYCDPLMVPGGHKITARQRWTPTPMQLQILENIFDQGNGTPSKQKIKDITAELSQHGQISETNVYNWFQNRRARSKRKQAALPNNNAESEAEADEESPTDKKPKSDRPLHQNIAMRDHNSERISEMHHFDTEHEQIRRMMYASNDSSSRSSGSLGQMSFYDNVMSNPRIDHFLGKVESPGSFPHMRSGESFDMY
EXPERIMENT SUMMARY: protein-binding microarray (RPBM); PBS, 2% BSA, 51.3 ng/ul salmon testes DNA, 50 uM zinc acetate, 200 nM TF, 25 C, 1 h; high values mean tight binding
CONDITION DESCRIPTION: protein: recombinant; tags: N-terminal polyhistidine and DsRed monomer fusion (pET32a); label: CyDye5-dUTP incorporated in the synthesized complementary strand; 3' TTTTT single-stranded linker to array surface; dsDNA, one strand shown
Whole data set: some 35,000 sequences, median “fluorescence intensity (a.u.)” near 10,000, cut for the highest 2% near 52,000. The full list was thinned out, with the highest values kept by preference.
REPORTED PROPERTY: binding signal

As a guide, the following entries are already answered.
{"columns": ["POLYMER SEQUENCE", "SYSTEM NAME", "READING"],
 "data": [
  ["AATATTGATGCTTAAATTTCTTTCGAAGATCCTATGGAAGCGGAGTCACCTAGTGCAG", "OsWOX13 (Oryza sativa, UniProt Q5QMM3 1-267)", "3840 fluorescence intensity (a.u.)"],
  ["TGTTATTTCAATCTCAGGATTGAGTGCAAGCAATCTGTTTCGGAGTCACCTAGTGCAG", "OsWOX13 (Oryza sativa, UniProt Q5QMM3 1-267)", "4210 fluorescence intensity (a.u.)"],
  ["TTTGGATTGATCATGGTCATTTGTACTTTTGTAGTCTTTACGGAGTCACCTAGTGCAG", "OsWOX13 (Oryza sativa, UniProt Q5QMM3 1-267)", "21500 fluorescence intensity (a.u.)"],
  ["GGGACAATCAGGGATTGTATGGTTTGAAGCTGATTTTGGCCGGAGTCACCTAGTGCAG", "OsWOX13 (Oryza sativa, UniProt Q5QMM3 1-267)", "3320 fluorescence intensity (a.u.)"]
]}

Query string: What value of binding signal has been reported for the following sequence? `AAGGCACGTTGATTGGACTAGTAGTACTACTACGTAGTAGCGGAGTCACCTAGTGCAG`
Result string: 18400 fluorescence intensity (a.u.)

Query string: What value of binding signal has been reported for the following sequence? `ATTTAAATCATCATCTATAGTCAATCTAATAGCTCACTCACGGAGTCACCTAGTGCAG`
Result string: 8910 fluorescence intensity (a.u.)

Query string: What value of binding signal has been reported for the following sequence? `ATAGCTAATTTTCGGTATGTTACACCATCCATCTGCCATGCGGAGTCACCTAGTGCAG`
Result string: 5050 fluorescence intensity (a.u.)

Query string: What value of binding signal has been reported for the following sequence? `GTTGATTTCACGACCTGCTCGCTGAGGAATGGAGGTCCAGCGGAGTCACCTAGTGCAG`
Result string: 3180 fluorescence intensity (a.u.)

Query string: What value of binding signal has been reported for the following sequence? `CTGTCAATCTGCATATATCTGTCTCTCTTACTCACTAACACGGAGTCACCTAGTGCAG`
Result string: 8750 fluorescence intensity (a.u.)

Query string: What value of binding signal has been reported for the following sequence? `ACCCTAATTCTCCTAATCTCTTAGGAAATATGGAAGAAGCCGGAGTCACCTAGTGCAG`
Result string: 3170 fluorescence intensity (a.u.)
